Recorded values, source patent US20240043427A1.

# study_target: CD73 (Homo sapiens (Human), UniProt P21589)
# Sequence (P21589 27-574): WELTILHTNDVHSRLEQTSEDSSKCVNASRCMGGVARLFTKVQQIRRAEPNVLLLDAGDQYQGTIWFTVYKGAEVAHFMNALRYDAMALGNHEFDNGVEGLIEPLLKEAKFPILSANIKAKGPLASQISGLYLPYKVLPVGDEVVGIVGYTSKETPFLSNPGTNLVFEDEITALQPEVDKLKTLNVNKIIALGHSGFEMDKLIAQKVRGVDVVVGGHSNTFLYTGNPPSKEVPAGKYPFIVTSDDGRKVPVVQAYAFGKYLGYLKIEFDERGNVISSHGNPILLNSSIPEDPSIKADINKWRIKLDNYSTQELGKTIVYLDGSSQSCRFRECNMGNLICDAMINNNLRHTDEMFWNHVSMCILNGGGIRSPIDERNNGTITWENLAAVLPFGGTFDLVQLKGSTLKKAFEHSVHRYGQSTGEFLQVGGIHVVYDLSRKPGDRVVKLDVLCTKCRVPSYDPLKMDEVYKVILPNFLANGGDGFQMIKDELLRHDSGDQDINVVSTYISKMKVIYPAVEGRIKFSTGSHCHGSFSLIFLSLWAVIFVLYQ
# Format: biochemical
# details: 1 mM NaH2PO4 in enzyme buffer, CD73 0.3 nM, AMP 15 uM
recorded_metric: pIC50
Kindly note that pIC50 refers to -log10 of the concentration in mol/L and answer with the value alone.

Consider the worked cases shown below.
{"compound": "O=c1[nH]cc(-c2cc([C@H]3C[C@@H]3c3ccc4c(F)nn(CC(F)(F)F)c4c3)c3nccn3n2)c(=O)[nH]1 (racemic) [Example 117]", "measured_value": 9.05}
{"compound": "O=c1[nH]cc(-c2cc([C@H]3C[C@@H]3c3ccc(F)cc3F)c3nc(C4CC4)cn3n2)c(=O)[nH]1", "measured_value": 8.21}
{"compound": "O=c1[nH]cc(-c2cc(N3C[C@H]4CC[C@H]4C3)c3nccn3n2)c(=O)[nH]1", "measured_value": 7.41}
{"compound": "O=C(CC(F)(F)F)N1CCC12CCN(c1cc(-c3c[nH]c(=O)[nH]c3=O)nn3ccnc13)C2 (centres unmarked)", "measured_value": 7.39}

Reported pIC50, compound `O=c1[nH]cc(-c2cc([C@H]3C[C@@H]3c3ccc(F)cc3F)n3nccc3n2)c(=O)[nH]1` : ____
8.76

How about `O=c1[nH]cc(-c2cc(N3CC(F)(C(F)(F)F)C3)c3ncnn3n2)c(=O)[nH]1` ?
8.01

How about `O=c1[nH]cc(-c2cc(N3CCC4(CC4)C3)c3nccn3n2)c(=O)[nH]1` ?
8.52

How about `O=c1[nH]cc(-c2cc([C@H]3C[C@@H]3c3ccc(OC(F)F)nc3)c3nccn3n2)c(=O)[nH]1` ?
8.77

How about CCNC(=O)OC1CN(c2cc(-c3c[nH]c(=O)[nH]c3=O)nn3ccnc23)CC1(F)F (centres unmarked) ?
8.88

How about O=C(NC1CN(c2cc(-c3c[nH]c(=O)[nH]c3=O)nn3ccnc23)CC1(F)F)OCC(F)(F)F (centres unmarked) ?
8.30

How about O=C(CC1CN(c2cc(-c3c[nH]c(=O)[nH]c3=O)nn3ccnc23)CC1(F)F)NC1(C(F)(F)F)CC1 (centres unmarked) ?
8.73

How about CC1(C#N)CCN(c2cc(-c3c[nH]c(=O)[nH]c3=O)nn3ccnc23)C1 (centres unmarked) ?
7.93

How about O=c1[nH]cc(-c2cc([C@H]3C[C@@H]3c3cncc(F)c3)c3nccn3n2)c(=O)[nH]1 (racemic) ?
8.45

How about O=c1[nH]cc(-c2cc([C@H]3C[C@@H]3c3ccccc3OC(F)(F)F)c3nccn3n2)c(=O)[nH]1 (racemic) ?
7.37

How about `O=c1[nH]cc(-c2cc(N3CC(C(F)F)C3)c3nccn3n2)c(=O)[nH]1` ?
8.05

How about CC1(C)CCN(C(=O)c2cccc([C@H]3C[C@@H]3c3cc(-c4c[nH]c(=O)[nH]c4=O)nn4ccnc34)c2)C1 (racemic) ?
8.26
